Reference source: ChEMBL document CHEMBL4715743

molecular target: Cannabinoid receptor 1 (Homo sapiens) (UniProt P21554); experiment: Negative allosteric modulator activity at CB1 receptor (unknown origin) expressed in HEK293 cell membrane assessed as equilibrium dissociation constant using [3H]-CP55940 as radiolabelled orthosteric agonist incubated for 60 mins by liquid scintillation counting analysis; assay type: cell membranes; settings: filed as negative allosteric modulator
Sequence (P21554 whole entry): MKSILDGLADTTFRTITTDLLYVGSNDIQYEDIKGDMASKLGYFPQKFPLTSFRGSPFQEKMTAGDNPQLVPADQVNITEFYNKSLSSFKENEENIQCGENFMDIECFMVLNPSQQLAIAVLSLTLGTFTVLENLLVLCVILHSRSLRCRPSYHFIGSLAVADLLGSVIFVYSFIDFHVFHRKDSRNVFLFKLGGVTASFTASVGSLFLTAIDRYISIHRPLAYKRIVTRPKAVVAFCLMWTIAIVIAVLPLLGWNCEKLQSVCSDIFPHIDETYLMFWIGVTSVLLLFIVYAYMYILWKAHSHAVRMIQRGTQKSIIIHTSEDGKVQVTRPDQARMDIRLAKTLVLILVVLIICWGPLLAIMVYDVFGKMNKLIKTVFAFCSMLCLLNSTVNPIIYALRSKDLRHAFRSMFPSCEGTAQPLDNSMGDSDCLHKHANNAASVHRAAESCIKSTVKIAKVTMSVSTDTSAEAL

# smiles.str, unit.abbrev, Kb
data = [
    ("CN(C)c1ccc(CCNC(=O)c2[nH]c3ccc(Cl)cc3c2CN=[N+]=[N-])cc1", "nM", 200),
    ("CCc1c(C(=O)NCCc2ccc(C(=O)c3ccccc3)cc2)[nH]c2ccc(Cl)cc12", "nM", 254),
    ("CCCCCc1c(C(=O)NCCc2ccc(C(=O)c3ccccc3)cc2)[nH]c2ccc(Cl)cc12", "nM", 559),
    ("[N-]=[N+]=NCc1c(C(=O)NCCc2ccc(N3CCCCC3)cc2)[nH]c2ccc(Cl)cc12", "nM", 784),
    ("CCCCCCc1c(C(=O)NCCc2ccc(C3(C(F)(F)F)N=N3)cc2)[nH]c2ccc(Cl)cc12", "nM", 3280),
    ("CCCCCCc1c(C(=O)NCCc2ccc(N=[N+]=[N-])cc2)[nH]c2ccc(Cl)cc12", "nM", 314),
    ("[N-]=[N+]=NCc1c(C(=O)NCCc2ccc(C(=O)c3ccccc3)cc2)[nH]c2ccc(Cl)cc12", "nM", 6310),
]

* * *

molecular target: Cannabinoid receptor 1 (Homo sapiens) (UniProt P21554); test: Negative allosteric modulator activity at CB1 receptor (unknown origin) expressed in HEK293 cell membrane assessed as reduction in CP55,940-induced [35S]GTPgammaS binding by measuring Emax of CP55,940 at 3.2 uM incubated for 60 mins by liquid scintillation counting analysis (reference value: 68.9 +/-1.7 fmol/mg); format: functional, cell membranes; details: filed as negative allosteric modulator
// values below are reported Emax
quantity: Emax

# smiles.str, recorded.result
records = [
    ("CN(C)c1ccc(CCNC(=O)c2[nH]c3ccc(Cl)cc3c2CN=[N+]=[N-])cc1", "31.1 fmol/mg"),
    ("CCCCCCc1c(C(=O)NCCc2ccc(N=[N+]=[N-])cc2)[nH]c2ccc(Cl)cc12", "34.1 fmol/mg"),
    ("CCCCCc1c(C(=O)NCCc2ccc(C(=O)c3ccccc3)cc2)[nH]c2ccc(Cl)cc12", "27 fmol/mg"),
    ("CCc1c(C(=O)NCCc2ccc(C(=O)c3ccccc3)cc2)[nH]c2ccc(Cl)cc12", "41.3 fmol/mg"),
]
